Taken from patent US9113629B2.

Test system: Key Broadleaf Weed and Crop Species
Assay: Post-emergent Test II herbicidal activity (Table 5)
Format: in vivo
Conditions: post-emergence, 336 h; BRSNN: oilseed-rape, canola (Brassica napus); application rate 140 g ai/ha; 14 days after application; read-out: Visual Growth Reduction (%) 14 Days After Application, BRSNN
Recorded pest or weed control at 140 g/ha for the following compounds
quantity.kind: pest or weed control at 140 g/ha

# compound, experimental.result
data = [
    ("Nc1cc(-c2ccc(Br)c(F)c2F)nc(C(=O)O)c1Cl [Compound 91]", "85 to 94%"),
    ("COC(=O)c1nc(-c2ccc(I)c(F)c2F)c(F)c(N)c1Cl [Compound 99]", "95 to 100%"),
    ("Nc1c(F)c(-c2ccc(C(F)(F)F)c(F)c2)nc(C(=O)O)c1Cl [Compound 134]", "95 to 100%"),
    ("COC(=O)c1nc(-c2ccc(OC(F)F)c(F)c2)c(F)c(N)c1Cl [Compound 152]", "85 to 94%"),
    ("C#Cc1ccc(-c2nc(N)c(OC)c(C(=O)O)n2)c(F)c1 [Compound 41]", "45 to 59%"),
]
